- System Name: T1, SHANK1, Q9Y566
- T1 sequence (Q9Y566 658-767, limits assumed, looked up): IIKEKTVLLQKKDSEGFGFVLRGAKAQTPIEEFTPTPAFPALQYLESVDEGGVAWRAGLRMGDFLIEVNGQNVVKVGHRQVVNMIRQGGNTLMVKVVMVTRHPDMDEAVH
- Protocol Text: holdup assay
- Set-up: key: below the threshold = too weak to quantify, mostly under pKd 3.1 to 4
- Assay Conditions: plain residues with an end cap or a label only (N-terminal biotin on a linker: ado-ado)
pKd values by entry
Answer using only a numeral; do not append any unit.

Below are worked cases with known answers.
EAVTVESTSL [SLC22A11, Q9NSA0]    5.68
WAKEKQHTRL [SLC17A1, Q14916]    4.91

We next turn to a different binder, shown below.
Req: Name the recorded pKd of the item KIEDVEITLV [FCHSD2, O94868] in your answer.
Resp: 4.1

Origin of values: paper PMC9482650
